Biological target: PIK3R3-NC tandem SH2 domains (Homo sapiens, UniProt Q92569)
Construct: the tandem protein was included in our analysis with all internal amino acids linking the domains; 6X His; thioredoxin; made in house; host or cells: E. coli BL21(DE3)pLysS
Test: FP saturation binding assay
Details: Protein PIK3R3-NC; FP saturation binding, high-confidence ErbB interactions; mean over replicate hits
Residues, ends and D or L forms follow the SMILES beside them.
Quantity measured: Kd (µM)
Please respond with the number in µM and leave the unit unwritten.

{"columns": ["Compound", "Target or test system", "Numeric value"],
 "data": [
  ["CC(C)C[C@H](NC(=O)[C@H](Cc1ccc(OP(=O)(O)O)cc1)NC(=O)[C@H](CCC(=O)O)NC(=O)[C@H](CCC(=O)O)NC(=O)[C@H](C)NC(=O)[C@@H](N)CC(=O)O)C(=O)N[C@H](C(=O)N1CCC[C@H]1C(=O)N[C@@H](CCC(N)=O)C(=O)N[C@@H](CCC(N)=O)C(=O)NCC(=O)N[C@@H](Cc1ccccc1)C(=O)N[C@@H](CC(=O)O)C(=O)O)C(C)C [ErbB2 1023 13-mer] (HELM PEPTIDE1{D.A.E.E.[O=C([C@H](Cc1ccc(OP(=O)(O)O)cc1)N[*:1])[*:2]].L.V.P.Q.Q.G.F.D}$$$$V2.0)", "PIK3R3-NC tandem SH2 domains (Homo sapiens, UniProt Q92569)", 10.7]
]}

Dear colleague, I am looking for the recorded Kd of the following compound: `CC[C@H](C)[C@H](NC(=O)[C@H](Cc1ccc(OP(=O)(O)O)cc1)NC(=O)[C@H](CCC(=O)O)NC(=O)[C@@H]1CCCN1C(=O)[C@@H](NC(=O)[C@@H]1CCCN1)C(C)C)C(=O)N[C@@H](CC(N)=O)C(=O)N[C@@H](CCC(N)=O)C(=O)N[C@@H](CO)C(=O)N[C@H](C(=O)N1CCC[C@H]1C(=O)N[C@@H](CCCCN)C(=O)N[C@@H](CC(=O)O)C(=O)O)C(C)C` 8.64

Dear colleague, I am looking for the recorded Kd of the following compound: CSCC[C@H](NC(=O)[C@@H](NC(=O)[C@H](Cc1ccc(OP(=O)(O)O)cc1)NC(=O)[C@H](C)NC(=O)[C@H](CCC(=O)O)NC(=O)[C@H](CC(=O)O)NC(=O)[C@@H](N)CC(C)C)C(C)C)C(=O)N[C@@H](C)C(=O)N[C@@H](CO)C(=O)N[C@H](C(=O)N[C@@H](CC(=O)O)C(=O)N[C@@H](CC(N)=O)C(=O)N[C@@H](CC(=O)O)C(=O)O)C(C)C [ErbB1 764 13-mer] (HELM PEPTIDE1{L.D.E.A.[O=C([C@H](Cc1ccc(OP(=O)(O)O)cc1)N[*:1])[*:2]].V.M.A.S.V.D.N.D}$$$$V2.0) 1.91

Dear colleague, I am looking for the recorded Kd of the following compound: CC(C)[C@H](NC(=O)[C@H](CC(=O)O)NC(=O)[C@@H]1CCCN1C(=O)[C@H](CCC(N)=O)NC(=O)[C@H](CC(N)=O)NC(=O)[C@@H](NC(=O)[C@H](Cc1ccc(OP(=O)(O)O)cc1)NC(=O)[C@H](CCC(=O)O)NC(=O)[C@@H]1CCCN1C(=O)[C@H](CCC(N)=O)NC(=O)[C@@H]1CCCN1)C(C)C)C(=O)N[C@@H](CCCNC(=N)N)C(=O)N[C@@H](CC(=O)O)C(=O)O [ErbB2 1139 13-mer] (HELM PEPTIDE1{P.Q.P.E.[O=C([C@H](Cc1ccc(OP(=O)(O)O)cc1)N[*:1])[*:2]].V.N.Q.P.D.V.R.D}$$$$V2.0) 5.18
